Provenance of the data: patent US20050215503

For each entry below, report its binding signal value.
target-or-test-system: HIF-1 (HIF-1alpha/HIF-1beta (ARNT) heterodimer) (Homo sapiens?, UniProt Q16665;P27540 Q16665:1-826,P27540:2-789)
Sequence (Q16665 whole entry, chain 1 of 2): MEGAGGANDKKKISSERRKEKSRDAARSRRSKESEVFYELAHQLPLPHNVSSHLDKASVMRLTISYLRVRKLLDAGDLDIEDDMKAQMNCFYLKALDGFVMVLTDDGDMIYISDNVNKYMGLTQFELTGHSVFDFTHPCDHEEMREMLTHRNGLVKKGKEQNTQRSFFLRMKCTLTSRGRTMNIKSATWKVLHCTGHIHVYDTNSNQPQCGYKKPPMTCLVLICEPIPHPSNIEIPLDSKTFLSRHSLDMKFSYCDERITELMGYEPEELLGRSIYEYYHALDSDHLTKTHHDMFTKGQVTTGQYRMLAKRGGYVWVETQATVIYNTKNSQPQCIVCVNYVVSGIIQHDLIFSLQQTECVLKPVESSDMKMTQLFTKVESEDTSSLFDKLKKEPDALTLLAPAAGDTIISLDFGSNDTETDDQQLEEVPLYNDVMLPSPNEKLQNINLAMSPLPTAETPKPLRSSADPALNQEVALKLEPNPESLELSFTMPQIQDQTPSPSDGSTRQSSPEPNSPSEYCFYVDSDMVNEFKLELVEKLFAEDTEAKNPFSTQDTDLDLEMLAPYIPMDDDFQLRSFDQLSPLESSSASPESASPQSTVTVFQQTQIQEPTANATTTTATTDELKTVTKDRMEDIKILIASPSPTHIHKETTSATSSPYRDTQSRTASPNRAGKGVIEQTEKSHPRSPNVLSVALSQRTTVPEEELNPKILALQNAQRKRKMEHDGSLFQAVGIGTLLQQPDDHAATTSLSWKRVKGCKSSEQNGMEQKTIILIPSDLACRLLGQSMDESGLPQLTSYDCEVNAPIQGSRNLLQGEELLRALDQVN
Sequence (P27540 2-789, chain 2 of 2): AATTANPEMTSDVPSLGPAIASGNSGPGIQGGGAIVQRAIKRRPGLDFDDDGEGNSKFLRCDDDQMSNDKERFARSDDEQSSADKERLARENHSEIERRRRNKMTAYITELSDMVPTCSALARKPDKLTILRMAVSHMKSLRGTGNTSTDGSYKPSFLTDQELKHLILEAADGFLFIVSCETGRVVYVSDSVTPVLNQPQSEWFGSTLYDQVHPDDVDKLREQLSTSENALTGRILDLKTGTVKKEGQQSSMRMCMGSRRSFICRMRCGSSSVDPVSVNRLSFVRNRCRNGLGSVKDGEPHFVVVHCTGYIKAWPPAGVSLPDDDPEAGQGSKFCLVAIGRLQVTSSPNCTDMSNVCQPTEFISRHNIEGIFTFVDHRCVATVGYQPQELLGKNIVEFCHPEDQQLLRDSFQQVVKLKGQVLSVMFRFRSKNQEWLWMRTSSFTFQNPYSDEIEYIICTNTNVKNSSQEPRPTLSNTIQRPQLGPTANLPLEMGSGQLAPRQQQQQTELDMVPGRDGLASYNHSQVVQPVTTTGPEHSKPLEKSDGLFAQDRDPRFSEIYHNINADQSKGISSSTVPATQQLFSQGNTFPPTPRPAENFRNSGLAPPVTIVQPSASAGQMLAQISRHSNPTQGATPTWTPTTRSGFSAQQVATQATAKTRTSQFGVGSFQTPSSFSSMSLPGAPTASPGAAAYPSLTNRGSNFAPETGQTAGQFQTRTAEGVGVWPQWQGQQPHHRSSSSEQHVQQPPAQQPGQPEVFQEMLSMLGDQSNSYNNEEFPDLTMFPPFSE
protocol: competition; TransAM
assay-context: protein: extract; tags: none (endogenous, nuclear extract)
Protocol: To assess the relative affinities of oligonucleotides for a HIF-1α containing complex, the HIF-1 TransAM assay (Active Motif, Catalog # 47096) was utilized. The assay was performed according to manufacturer's instructions. Briefly, a double-stranded oligonucletide containing the hypoxia response element (HRE) was immobilized on a 96-well plate. […] The unbound material was washed away and the bound HIF-1α detected using an antibody that specificially recognizes HIF-1α. […]
Give bare numbers, in ratio.

binder: decoy 931 (dsDNA) DNA 1: CCAGCGTCCGTGCCTCAGG DNA 2: CCTGAGGCACGGACGCTGG
measurement-name: binding signal
value-observed: 3.44
//
binder: decoy 805/806 (dsDNA) DNA 1: CCCCCTCGGACGTGACTCGGACCAC DNA 2: GTGGTCCGAGTCACGTCCGAGGGGG
measurement-name: binding signal
value-observed: 1.13

Next:
The binder identified as decoy 835/836 (dsDNA) DNA 1: GGCCAGACGTGCCACCGG DNA 2: CCGGTGGCACGTCTGGCC registered its binding signal at 2.91
